These entries and their values trace back to the supplement of paper PMC8285479.

System: NCI-H1944;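 further: CTB read-out in 384-well plates, triplicate wells, NPI normalised per plate against 1 µM phenylarsine oxide (0) and 0.1% DMSO (1) controls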
Assay: normalised cell viability (NPI; 0 = phenylarsine oxide control, 1 = DMSO control) (fraction of DMSO control); NCI-H1944 is a non-small cell lung cancer line; higher = more viable cells (less compound toxicity)
Details: glucocorticoid arm: hydrocortisone 2.75 uM pre-treated 2 days and continued; compound 5 µM; 6 days
Where a name gives a salt, the structure may show the parent alone. The full ranking holds about 1,900 compounds; the median of “normalised cell viability (NPI; 0 = phenylarsine oxide control, 1 = DMSO control)” is about 1, and the lowest 2% start at about 0.039. For the sample, the lowest values were picked, then their nearest neighbours and some compounds at random.
OUTCOME MEASURE: normalised cell viability
Answer with a number only.

# MOLECULE, EXPERIMENTAL VALUE
records = [
    ("OCc1ccc(-c2ccc(-c3ccc(CO)s3)o2)s1", 0.358),
    ("CCCCCCCCCCCCCCCCCCNC(=O)OCC(COP(=O)([O-])OCC[n+]1ccsc1)OC (configuration not stated)", 1.01),
    ("COC(=O)C1=C(C)NC(C)=C([N+](=O)[O-])C1c1ccccc1C(F)(F)F (racemic)", 0.935),
    ("CO/N=C(\\C(=O)N[C@@H]1C(=O)N2C(C(=O)O)=C(CSc3nc(=O)c(O)nn3C)CS[C@H]12)c1csc(N)n1 [Ceftriaxone sodium salt]", 0.992),
    ("COc1ccc2c3n(c(=NC(=O)c4cccnc4)nc2c1OC)CCN3", 0.663),
    ("O=C1O/C(=C/Br)CCC1c1cccc2ccccc12 (configuration not stated)", 1.02),
]

Qu. Entry NC(=O)c1cc[n+](CC2=C(C(=O)O)N3C(=O)[C@@H](NC(=O)C(c4ccccc4)S(=O)(=O)[O-])[C@H]3SC2)cc1 (some centres not stated) [Cefsulodin sodium salt hydrate] : reported normalised cell viability = ?
Ans. 1.01

Qu. Suppose we examine the molecule "CN=c1nc(-c2ccccc2)n(-c2ccccc2)s1" ; what normalised cell viability value has been reported?
Ans. 1.02

Qu. Quick one: normalised cell viability of NS(=O)(=O)c1cc(C(=O)O)c(NCc2ccco2)cc1Cl [Furosemide] ?
Ans. 0.995

Qu. Recorded normalised cell viability of "CCOc1ccc(Cc2cc([C@@H]3O[C@H](CO)[C@@H](O)[C@H](O)[C@H]3O)ccc2Cl)cc1" , please.
Ans. 1.04
